// data source = paper PMC3179844

// values below are IC50; system is human cytochrome P450 2C9 (Homo sapiens)
Sequence (P11712 whole entry): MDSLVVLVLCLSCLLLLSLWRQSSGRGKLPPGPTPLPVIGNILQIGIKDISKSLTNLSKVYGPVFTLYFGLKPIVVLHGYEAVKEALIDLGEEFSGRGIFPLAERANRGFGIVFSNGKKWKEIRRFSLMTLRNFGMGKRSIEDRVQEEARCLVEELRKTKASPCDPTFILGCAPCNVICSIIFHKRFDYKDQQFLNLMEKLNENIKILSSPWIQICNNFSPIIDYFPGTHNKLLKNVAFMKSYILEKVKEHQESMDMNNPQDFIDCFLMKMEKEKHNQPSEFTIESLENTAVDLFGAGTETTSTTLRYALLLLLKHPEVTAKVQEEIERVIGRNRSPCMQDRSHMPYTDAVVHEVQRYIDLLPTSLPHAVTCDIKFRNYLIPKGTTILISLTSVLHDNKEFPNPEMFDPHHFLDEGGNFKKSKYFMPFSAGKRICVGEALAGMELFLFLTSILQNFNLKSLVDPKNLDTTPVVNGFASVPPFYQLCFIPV

Task: I'd like to know its IC50. The molecule in question is O=C(CS(=O)(=O)Cc1ccccn1)C12CC3CC(CC(C3)C1)C2
Output: > 100 µM

Task: I'd like to know its IC50. The molecule in question is O=C(COCc1ccccn1)C12CC3CC(CC(C3)C1)C2
Output: > 100 µM

Task: I'd like to know its IC50. The molecule in question is O=C(C[S+]([O-])c1ccncc1)C12CC3CC(CC(C3)C1)C2 (stereo not shown)
Output: > 100 µM

Task: I'd like to know its IC50. The molecule in question is O=C(COCc1cccnc1)C12CC3CC(CC(C3)C1)C2
Output: > 100 µM

----------
Task for the reader: assign each of the following compounds its reported melting point.

Task: I'd like to know its melting point. The compound in question is Cc1cccc(OCC(=O)C23CC4CC(CC(C4)C2)C3)n1
Output: 85 to 87 °C

Task: I'd like to know its melting point. The compound in question is O=C(COc1cccnc1)C12CC3CC(CC(C3)C1)C2
Output: 73 to 75 °C

Task: I'd like to know its melting point. The compound in question is O=C(CS(=O)(=O)c1ccccn1)C12CC3CC(CC(C3)C1)C2
Output: 129 to 131 °C

Task: I'd like to know its melting point. The compound in question is Cc1ccc(OCC(=O)C23CC4CC(CC(C4)C2)C3)cn1
Output: 86 to 87 °C

Task: I'd like to know its melting point. The compound in question is O=C(COc1cncc(Cl)c1)C12CC3CC(CC(C3)C1)C2
Output: 127 to 128 °C

----------
- tgt: human 11β-HSD1 (Homo sapiens, UniProt P28845)
- Sequence (P28845 whole entry): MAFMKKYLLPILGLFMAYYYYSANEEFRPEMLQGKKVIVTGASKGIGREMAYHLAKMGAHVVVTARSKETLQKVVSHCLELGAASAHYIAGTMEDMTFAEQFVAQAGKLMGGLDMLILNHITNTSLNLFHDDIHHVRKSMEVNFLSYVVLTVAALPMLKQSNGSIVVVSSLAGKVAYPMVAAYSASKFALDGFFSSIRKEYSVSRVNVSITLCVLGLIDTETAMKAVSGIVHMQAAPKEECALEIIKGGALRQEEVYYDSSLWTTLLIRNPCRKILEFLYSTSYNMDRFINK
- protocol-summary: Cellular 11β-HSD1 inhibition assay
- particulars: HEK293, read-out: Percent inhibition measured at 1 μM
Task for the reader: assign each of the following compounds its reported inhibition at 1 µM.
Express your answer in %, writing the number without its unit.

Task: I'd like to know its inhibition at 1 µM. The compound in question is O=C(CS(=O)(=O)Cc1ccc(C(F)(F)F)nc1)C12CC3CC(CC(C3)C1)C2
Output: 54

Task: I'd like to know its inhibition at 1 µM. The compound in question is Cc1cccc(SCC(=O)C23CC4CC(CC(C4)C2)C3)n1
Output: 70

Task: I'd like to know its inhibition at 1 µM. The compound in question is O=C(CSCc1ccc(C(F)(F)F)nc1)C12CC3CC(CC(C3)C1)C2
Output: 20

Task: I'd like to know its inhibition at 1 µM. The compound in question is O=C(COCc1ccc(C(F)(F)F)nc1)C12CC3CC(CC(C3)C1)C2
Output: 33

Task: I'd like to know its inhibition at 1 µM. The compound in question is O=C(CSCc1ccc(Cl)nc1)C12CC3CC(CC(C3)C1)C2
Output: 31

----------
- protocol-summary: Metabolism studies in human liver microsomes
- Type: in vitro ADME
- particulars: human, liver microsomes, Half-life, human liver microsomes, 37 °C, NADPH, 40 min; mean of two measurements
Task for the reader: assign each of the following compounds its reported half-life.
Express your answer in h, writing the number without its unit.

Task: I'd like to know its half-life. The compound in question is O=C(COCc1cccnc1)C12CC3CC(CC(C3)C1)C2
Output: 2.13

Task: I'd like to know its half-life. The compound in question is O=C(COCc1ccccn1)C12CC3CC(CC(C3)C1)C2
Output: 1.13

----------
Task for the reader: assign each of the following compounds its reported melting point.

Task: I'd like to know its melting point. The compound in question is ON=C(COCc1cccnc1)C12CC3CC(CC(C3)C1)C2 [Compound 36]
Output: 115 to 117 °C

Task: I'd like to know its melting point. The compound in question is O=C(COc1cccc(Cl)n1)C12CC3CC(CC(C3)C1)C2 [Compound 7]
Output: 90 to 93 °C

Task: I'd like to know its melting point. The compound in question is O=C(COc1cccnc1Cl)C12CC3CC(CC(C3)C1)C2 [Compound 10]
Output: 125 to 128 °C

Task: I'd like to know its melting point. The compound in question is O=C(CSCc1ccccn1)C12CC3CC(CC(C3)C1)C2 [Compound 37]
Output: 38 to 39 °C

Task: I'd like to know its melting point. The compound in question is Cc1cccc(SCC(=O)C23CC4CC(CC(C4)C2)C3)n1 [Compound 14]
Output: 116 to 117 °C

Task: I'd like to know its melting point. The compound in question is O=C(NCC(=O)C12CC3CC(CC(C3)C1)C2)c1cccnc1 [Compound 58]
Output: 114 to 115 °C

Task: I'd like to know its melting point. The compound in question is O=C(CSCc1ccc(Cl)nc1)C12CC3CC(CC(C3)C1)C2 [Compound 49]
Output: 88 to 90 °C

Task: I'd like to know its melting point. The compound in question is O=C(CS(=O)(=O)Cc1ccc(C(F)(F)F)nc1)C12CC3CC(CC(C3)C1)C2 [Compound 52]
Output: 87 to 89 °C

Task: I'd like to know its melting point. The compound in question is O=C(CSc1ccncc1)C12CC3CC(CC(C3)C1)C2 [Compound 15]
Output: 114 to 115 °C

Task: I'd like to know its melting point. The compound in question is O=C(Cc1cccnc1)NCC(=O)C12CC3CC(CC(C3)C1)C2 [Compound 61]
Output: 115 to 117 °C

Task: I'd like to know its melting point. The compound in question is O=C(CSCc1ccc(C(F)(F)F)nc1)C12CC3CC(CC(C3)C1)C2 [Compound 48]
Output: 80 to 82 °C

Task: I'd like to know its melting point. The compound in question is O=C(Cc1ccccn1)NCC(=O)C12CC3CC(CC(C3)C1)C2 [Compound 60]
Output: 137 to 139 °C

Task: I'd like to know its melting point. The compound in question is O=C(NCC(=O)C12CC3CC(CC(C3)C1)C2)c1ccccn1 [Compound 56]
Output: 135 to 136 °C

Task: I'd like to know its melting point. The compound in question is O=C(C[S+]([O-])c1ccncc1)C12CC3CC(CC(C3)C1)C2 (stereo not shown) [Compound 18]
Output: 136 to 138 °C

Task: I'd like to know its melting point. The compound in question is O=C(C[S+]([O-])Cc1ccccn1)C12CC3CC(CC(C3)C1)C2 (stereo not shown) [Compound 40]
Output: 87 to 88 °C

Task: I'd like to know its melting point. The compound in question is O=C(CSc1ccc(C(F)(F)F)cn1)C12CC3CC(CC(C3)C1)C2 [Compound 22]
Output: 141 to 142 °C

Task: I'd like to know its melting point. The compound in question is O=C(C[S+]([O-])c1ccccn1)C12CC3CC(CC(C3)C1)C2 (stereo not shown) [Compound 16]
Output: 66 to 68 °C

Task: I'd like to know its melting point. The compound in question is O=C(CS(=O)(=O)Cc1ccccn1)C12CC3CC(CC(C3)C1)C2 [Compound 43]
Output: 116 to 117 °C

Task: I'd like to know its melting point. The compound in question is NC(=O)c1ccc(SCC(=O)C23CC4CC(CC(C4)C2)C3)nc1 [Compound 24]
Output: 172 to 174 °C

----------
- tgt: mouse 11β-HSD1 (Mus musculus)
- Sequence (P50172 whole entry): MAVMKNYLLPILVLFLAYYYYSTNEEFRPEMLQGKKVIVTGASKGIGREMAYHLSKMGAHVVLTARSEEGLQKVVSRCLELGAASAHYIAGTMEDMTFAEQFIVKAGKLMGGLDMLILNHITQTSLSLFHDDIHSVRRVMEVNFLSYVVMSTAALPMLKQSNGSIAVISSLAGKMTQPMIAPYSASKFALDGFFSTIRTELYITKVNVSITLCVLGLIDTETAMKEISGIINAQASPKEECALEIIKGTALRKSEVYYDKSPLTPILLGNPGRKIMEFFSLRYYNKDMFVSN
- protocol-summary: Cellular 11β-HSD1 inhibition, mouse enzyme
- Format: cell-based
- particulars: mean of three measurements
IC50 strictly less than 70 nM = label 1. Otherwise label 0.

Task: Consider O=C(COCc1ccccn1)C12CC3CC(CC(C3)C1)C2 . Does its IC50 lie strictly below 70 nM?
Output: label 1

Task: Consider O=C(COc1cccnc1)C12CC3CC(CC(C3)C1)C2 . Does its IC50 lie strictly below 70 nM?
Output: label 0

Task: Consider O=C(C[S+]([O-])Cc1ccccn1)C12CC3CC(CC(C3)C1)C2 (stereo not shown) . Does its IC50 lie strictly below 70 nM?
Output: label 0

Task: Consider O=C(C[S+]([O-])c1ccccn1)C12CC3CC(CC(C3)C1)C2 (stereo not shown) . Does its IC50 lie strictly below 70 nM?
Output: label 1

Task: Consider O=C(C[S+]([O-])c1ccncc1)C12CC3CC(CC(C3)C1)C2 (stereo not shown) . Does its IC50 lie strictly below 70 nM?
Output: label 1

Task: Consider O=C(CS(=O)(=O)Cc1ccccn1)C12CC3CC(CC(C3)C1)C2 . Does its IC50 lie strictly below 70 nM?
Output: label 1

----------
- tgt: human cytochrome P450 2D6 (Homo sapiens, UniProt P10635)
- Sequence (P10635 whole entry): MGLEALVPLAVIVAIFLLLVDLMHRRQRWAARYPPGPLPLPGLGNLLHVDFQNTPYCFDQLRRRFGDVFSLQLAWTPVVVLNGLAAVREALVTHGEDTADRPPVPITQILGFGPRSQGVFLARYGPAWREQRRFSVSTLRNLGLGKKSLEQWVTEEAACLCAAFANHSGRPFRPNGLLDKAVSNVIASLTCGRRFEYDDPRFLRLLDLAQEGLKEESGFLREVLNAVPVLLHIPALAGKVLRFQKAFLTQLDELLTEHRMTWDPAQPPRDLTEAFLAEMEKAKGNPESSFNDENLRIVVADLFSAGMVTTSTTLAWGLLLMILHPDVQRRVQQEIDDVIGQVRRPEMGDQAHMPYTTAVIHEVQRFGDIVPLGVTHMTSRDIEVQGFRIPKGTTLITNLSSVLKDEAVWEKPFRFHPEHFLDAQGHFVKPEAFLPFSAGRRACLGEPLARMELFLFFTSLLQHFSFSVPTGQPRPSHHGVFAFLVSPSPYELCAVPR
- protocol-summary: Inhibition of human cytochrome P450 2D6
- Assay type: in vitro ADME
pIC50: −log10 of the molar value.
reported-property: pIC50

Task: I'd like to know its pIC50. The compound in question is O=C(C[S+]([O-])c1ccncc1)C12CC3CC(CC(C3)C1)C2 (centres unmarked) [Compound 18]
Output: < 4.00

Task: I'd like to know its pIC50. The compound in question is O=C(COCc1ccccn1)C12CC3CC(CC(C3)C1)C2 [Compound 28]
Output: < 4.00
